Target: T1, 4H3628-AA
T1 chain: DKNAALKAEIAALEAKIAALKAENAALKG
Assay: two-hybrid library CCmax;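 further: natural log of median RNA to DNA barcode read ratio; higher means stronger binding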
Settings: mean of both orientations
REPORTED_METRIC: interaction score

Give interaction score for DKNAALEAEIAALEAENAALKAKIAALKG [4H3102-AA] -0.57

Dear colleague, please send me the reported interaction score for DKIAALEAENAALKAKIAALKAENAALEG [4H2283-AA] when you can. -1.32

Output measured interaction score for this item: DKNAALKAEIAALEAEIAALEAKNAALEG [4H3591-AA] -0.555

[A] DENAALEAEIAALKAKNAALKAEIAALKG [4H1146-AA]
[B] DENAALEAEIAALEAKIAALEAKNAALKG [4H1064-AA]
[C] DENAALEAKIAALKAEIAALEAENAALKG [4H1348-AA]
Give the ascending ranking of the items by reported interaction score. Answer format: the labels, in the requested order. A, B, C
(A: -1.65, B: 1.07, C: 2.05)

[A] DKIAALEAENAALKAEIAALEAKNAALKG [4H2248-AA]
[B] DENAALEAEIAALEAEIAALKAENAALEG [4H1035-AA]
I would appreciate it if you could say which entry, A or B , has the lower interaction score value. Answer by stating the label of the chosen item. A
